biological target: Dihydroorotate dehydrogenase (quinone), mitochondrial [30-395] (Homo sapiens, UniProt Q02127)
Sequence (Q02127 30-395): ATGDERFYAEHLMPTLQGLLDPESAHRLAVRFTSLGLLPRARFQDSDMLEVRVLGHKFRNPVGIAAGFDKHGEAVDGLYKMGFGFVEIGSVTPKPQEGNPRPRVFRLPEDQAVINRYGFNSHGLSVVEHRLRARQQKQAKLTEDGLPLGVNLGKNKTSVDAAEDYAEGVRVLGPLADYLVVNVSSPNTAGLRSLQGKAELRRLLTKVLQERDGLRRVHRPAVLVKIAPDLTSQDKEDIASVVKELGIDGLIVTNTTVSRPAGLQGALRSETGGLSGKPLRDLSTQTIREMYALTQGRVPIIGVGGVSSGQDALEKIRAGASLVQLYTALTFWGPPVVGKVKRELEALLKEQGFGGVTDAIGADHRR
attribute measured: IC50 (nM)
Numeric answer only, unit nM assumed.

Query string: Output IC50 of O=C(O)c1cscc1C(=O)Nc1c(F)cc(-c2cccc(OC(F)(F)F)c2)cc1F
Result string: 10
